System: Ruminococcus gnavus DSM 108212
Experiment: fold change of Tryptamine concentration vs plate DMSO controls (fold change (ratio)); higher = more amine produced, active = hit call of the paper (significant change in both replicates, either direction)
Conditions: 20 µM; incubation time: 27 h, anaerobic, 37 °C
readout_kind: fold change of Tryptamine concentration

1. CCCC(C)(COC(N)=O)COC(=O)NC(C)C (centres undefined) [Carisoprodol] ... 1.02
2. CC(C)[N+](C)(CCC(C(N)=O)(c1ccccc1)c1ccccc1)C(C)C [Isopropamide iodide] ... 0.909
3. C[C@]12Cc3c[nH]nc3C[C@@H]1CC[C@@H]1[C@@H]2CC[C@@]2(C)[C@H]1CC[C@]2(C)O [Stanozolol] ... 0.976
4. CCCCCC[C@H]1C(=O)O[C@H](C)[C@H](NC(=O)c2cccc(NC=O)c2O)C(=O)O[C@@H](C)[C@@H]1OC(=O)CC(C)C [Antimycin A] ... 1.04
5. CN1C[C@H](CNC(=O)OCc2ccccc2)C[C@@H]2c3cccc4c3c(cn4C)C[C@H]21 [Metergoline] ... 0.94
6. CC1=NNC(=O)N(/N=C/c2cccnc2)C1 ... 1.01
7. C#C[C@]1(O)C=C[C@H]2[C@@H]3CCC4=CC(=O)CC[C@@H]4[C@H]3CC[C@@]21CC [Gestodene] ... 1.01
8. Clc1ccc(C(c2ccc(Cl)cc2)C(Cl)(Cl)Cl)cc1 ... 0.962
9. CCN(C(C)=O)c1cccc(-c2ccnc3c(C#N)cnn23)c1 [Zaleplon] ... 1.02

* * *

As shown below, each of these compounds has a reported fold change of Putrescine concentration value.
System: Escherichia coli IAI1
Assay: fold change of Putrescine concentration vs plate DMSO controls (fold change (ratio)); higher = more amine produced, active = hit call of the paper (significant change in both replicates, either direction)
Conditions: 20 µM; incubation time: 27 h, anaerobic, 37 °C
readout_kind: fold change of Putrescine concentration

1. O=C(O)CNCP(=O)(O)O ... 0.961
2. C=CC(N)=O [Acrylamide] ... 0.967
3. CCOC(=O)CC(SP(=S)(OC)OC)C(=O)OCC (configuration not stated) ... 1.01
4. COP(N)(=O)SC (configuration not stated) ... 1.05
5. CC(C)CC(C)c1sccc1NC(=O)c1cn(C)nc1C(F)(F)F (configuration not stated) ... 1.05
6. CCC1(c2ccc(N)cc2)CCC(=O)NC1=O (configuration not stated) [Glutethimide, para-amino] ... 0.992
7. CC(C)N1C(=O)N(c2ccccc2)CS/C1=N\C(C)(C)C ... 1.02
8. CN/C(=N\[N+](=O)[O-])NCc1cnc(Cl)s1 ... 0.98
9. O=C(O[C@H]1C[N+]2(CCCOc3ccccc3)CCC1CC2)C(O)(c1cccs1)c1cccs1 [Aclidinium bromide] ... 1.08
10. CN(C)C(CSS(=O)(=O)O)CSS(=O)(=O)O ... 1.04
11. CC(=O)O[C@H]1CC[C@@]2(C)C(=CC[C@@H]3[C@@H]2CC[C@]2(C)C(=O)CC[C@@H]32)C1 [Dehydroisoandosterone 3-acetate] ... 1.08
12. CC(C)(C)C(O)(CCc1ccc(Cl)cc1)Cn1cncn1 (configuration not stated) ... 0.998
13. NC(=O)CN1CCCC1=O [Piracetam] ... 1.04
14. CC(Oc1ccc(Oc2ncc(C(F)(F)F)cc2Cl)cc1)C(=O)O (configuration not stated) ... 1.05
15. CC(C)C[C@H](CN)CC(=O)O [Pregabalin] ... 1.03
16. N#Cc1sc2c(=O)c3ccccc3c(=O)c=2sc1C#N ... 1.02
17. C=C(C)[C@@H]1[C@H]2OC(=O)[C@@H]1[C@]1(O)C[C@H]3O[C@]34C(=O)O[C@H]2[C@]14C [Picrotoxinin] ... 0.898
18. c1ccc2c(c1)Nc1ccccc1S2 [Phenothiazine] ... 0.944
19. CCC(=O)O[C@H]1CC[C@H]2[C@@H]3CCC4=CC(=O)CC[C@]4(C)[C@H]3CC[C@]12C [Testosterone propionate] ... 0.938
20. O=[N+]([O-])O[C@@H]1CO[C@H]2[C@@H]1OC[C@@H]2O [Isosorbide mononitrate] ... 0.959
21. Cc1nc(N(C)C)nc(OC(=O)N(C)C)c1C ... 0.905
22. CCOCn1c(-c2ccc(Cl)cc2)c(C#N)c(Br)c1C(F)(F)F ... 1.03

* * *

Test system: Escherichia coli IAI1
Assay: fold change of Cadaverine concentration vs plate DMSO controls (fold change (ratio)); higher = more amine produced, active = hit call of the paper (significant change in both replicates, either direction)
Settings: 20 µM; incubation time: 27 h, anaerobic, 37 °C
Returns TRUE if the recorded fold change of Cadaverine concentration is greater than or equal to 1, and FALSE otherwise.

1. CC(C)=CC1C(C(=O)OCc2cccc(Oc3ccccc3)c2)C1(C)C (centres undefined) ... TRUE
2. C[N+]1(C)CCOC(O)(c2ccc(-c3ccc(C4(O)C[N+](C)(C)CCO4)cc3)cc2)C1 (centres undefined) [Hemicholinium bromide] ... FALSE
3. COCc1cnc(C2=NC(C)(C(C)C)C(=O)N2)c(C(=O)O)c1 (centres undefined) ... FALSE

* * *

System: Ruminococcus gnavus DSM 108212
Assay: growth (OD595) fold change vs plate DMSO controls (fold change (ratio)); higher = more growth
Settings: 20 µM; incubation time: 27 h, anaerobic, 37 °C
Structures can show the parent of a compound that is named as a salt.
As shown below, each of these compounds has a reported growth value.
readout_kind: growth

1) CC(C)N(C)S(=O)(=O)NC(=O)c1cc(-n2c(=O)cc(C(F)(F)F)n(C)c2=O)c(F)cc1Cl ... 1.03
2) Clc1ccc(C(OCCN2CCCCC2)c2ccccc2)cc1 (stereo not given) [Cloperastine hydrochloride] ... 0.788
3) Oc1ccc(Cl)cc1Cc1cc(Cl)ccc1O ... 0.861
4) O=c1[nH]c2ccccc2n1C1CCN(CCCC(c2ccc(F)cc2)c2ccc(F)cc2)CC1 [Pimozide] ... 1.25
5) COc1ccc(-c2ccccc2)cc1NNC(=O)OC(C)C ... 1.12

* * *

Test system: Escherichia coli IAI1
Test: fold change of Cadaverine concentration vs plate DMSO controls (fold change (ratio)); higher = more amine produced, active = hit call of the paper (significant change in both replicates, either direction)
Details: 20 µM; incubation time: 27 h, anaerobic, 37 °C
Counter-ions that a name gives are not always drawn.
Returns criterion met if the recorded fold change of Cadaverine concentration is greater than or equal to 1, and criterion not met otherwise.

1. CO/C=C(/C(=O)OC)c1ccccc1Oc1cc(Oc2ccccc2C#N)ncn1 ... criterion not met
2. OCC(O)CCl (racemic) ... criterion not met
3. C[N+]1(C)CCCC(OC(=O)C(O)(c2ccccc2)c2ccccc2)C1 (stereo not given) [Mepenzolate bromide] ... criterion met
4. CNC(=O)c1cc(Cl)cc(C)c1NC(=O)c1cc(Br)nn1-c1ncccc1Cl ... criterion not met
5. CCC1(C2=NCCN2)Cc2ccccc2O1 (stereo not given) [Efaroxan hydrochloride] ... criterion met

* * *

Tested on: Ruminococcus gnavus DSM 108212
Assay: growth (OD595) fold change vs plate DMSO controls (fold change (ratio)); higher = more growth
Conditions: 20 µM; incubation time: 27 h, anaerobic, 37 °C
Where a name gives a salt, the structure may show the parent alone.
Returns 1 if the recorded growth is greater than or equal to 1, and -1 otherwise.

1) O=C(NCNC(=O)NC1C(=O)NC(=O)N1CO)NC1C(=O)NC(=O)N1CO (configuration not stated) [Imidurea] ... 1
2) CCOCN(C(=O)CCl)c1c(C)cccc1CC ... 1
3) CN1[C@@H]2CC[C@H]1C[C@@H](OC1c3ccccc3CCc3ccccc31)C2 [Deptropine citrate] ... -1
4) CC(=O)O[C@H]1CC[C@@]2(C)C(=CC[C@@H]3[C@@H]2CC[C@]2(C)C(=O)CC[C@@H]32)C1 [Dehydroisoandosterone 3-acetate] ... 1
5) C[C@]12CC[C@@H]3c4ccc(OC(=O)N(CCCl)CCCl)cc4CC[C@H]3[C@@H]1CC[C@@H]2O [Estramustine] ... 1
6) CCN(C(C)=O)c1cccc(-c2ccnc3c(C#N)cnn23)c1 [Zaleplon] ... 1
7) COc1cc(OC)nc(NC(=O)NS(=O)(=O)c2ncccc2C(=O)N(C)C)n1 ... 1
8) CCOC(=O)OC1=C(c2cc(C)ccc2C)C(=O)N[C@]12CC[C@@H](OC)CC2 ... -1
9) CNC(=O)Oc1cccc(/N=C/N(C)C)c1 ... 1
10) CC(C)(N)Cc1ccccc1 [Phentermine hydrochloride] ... -1
11) CC(=O)[C@H]1CC[C@H]2[C@@H]3CC[C@H]4C[C@H](O)CC[C@]4(C)[C@H]3C(=O)C[C@]12C [Alfaxalone] ... 1
12) Nc1nc(N)nc(NC2CC2)n1 [Cyromazine] ... 1
13) CSc1nnc(C(C)(C)C)c(=O)n1N ... -1
14) Cc1c(COC(=O)[C@@H]2[C@H](/C=C(\Cl)C(F)(F)F)C2(C)C)cccc1-c1ccccc1 (racemic) ... 1
15) CC(=O)O[C@H]1C[C@H](O[C@H]2[C@@H](O)C[C@H](O[C@H]3[C@@H](O)C[C@H](O[C@H]4CC[C@@]5(C)[C@H](CC[C@@H]6[C@@H]5C[C@@H](O)[C@]5(C)[C@@H](C7=CC(=O)OC7)CC[C@]65O)C4)O[C@@H]3C)O[C@@H]2C)O[C@H](C)[C@H]1O[C@@H]1O[C@H](CO)[C@@H](O)[C@H](O)[C@H]1O [Lanatoside C] ... 1
16) CC(C)=CC1C(C(=O)OCc2cccc(Oc3ccccc3)c2)C1(C)C (configuration not stated) [Phenothrin] ... 1
17) O=C(NCCc1ncc(C(F)(F)F)cc1Cl)c1ccccc1C(F)(F)F ... 1
18) CNC(=O)/C=C(\C)OP(=O)(OC)OC ... -1
19) NCCc1c[nH]c2ccc(O)cc12 [Serotonin hydrochloride] ... -1
20) N#CC(CCc1ccc(Cl)cc1)(Cn1cncn1)c1ccccc1 (configuration not stated) ... 1
21) NC(=O)OCCCc1ccccc1 [Phenprobamate] ... -1
22) CC1=NNC(=O)N(/N=C/c2cccnc2)C1 ... 1
23) CC(Cc1ccccc1)NCCC(c1ccccc1)c1ccccc1 (configuration not stated) [Prenylamine lactate] ... 1
24) CN1C(=O)COc2c(C(=O)NC3CN4CCC3CC4)cc(Cl)cc21 (configuration not stated) [Azasetron hydrochloride] ... -1
25) CC(C)N1C(=O)c2ccccc2NS1(=O)=O ... 1
26) CC(=O)OCC1=C(C(=O)O)N2C(=O)[C@@H](N)[C@H]2SC1 [Cephalosporanic acid, 7-amino] ... -1
27) COc1ccc(CN2CCNCC2)c(OC)c1OC [Trimetazidine dihydrochloride] ... 1

// provenance: the supplement of paper PMC12494721
